B1: TPR 5TU (parent)
chain: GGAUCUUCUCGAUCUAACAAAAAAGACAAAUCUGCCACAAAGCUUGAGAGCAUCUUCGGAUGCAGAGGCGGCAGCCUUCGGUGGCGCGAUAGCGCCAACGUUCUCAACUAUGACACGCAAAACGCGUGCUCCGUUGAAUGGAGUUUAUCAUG

# Variants of: B1
# METHOD_DESCRIPTION: polymerase ribozyme fitness, log enrichment relative to wild type (log ratio); higher = more active; in vitro selection for triplet polymerase activity
Fewer inactive variants are shown than the library holds.
QUANTITY: polymerase ribozyme fitness (log ratio)
Write no unit; give the number alone.

Below, 10 variants whose answers are already recorded.
INSERT INTO results (mutant_code, test_value) VALUES
  ('G133U U135G', -4.04),
  ('U56A G58U A119G C131A', -2.04),
  ('G86A C103U', -1.01),
  ('A66G C87U', -3.68),
  ('G86C A89U', -2.94),
  ('C63U A122U', 0.751),
  ('C5G C105U', -0.0507),
  ('A3G C18U G34U C95U A115C', -4.09),
  ('A19C U53A', -1.57),
  ('A17G', 0.0905);

The reported value for G83C G117A in terms of polymerase ribozyme fitness (log ratio) is 0.556

The reported value for A40C U134G A142G U145A in terms of polymerase ribozyme fitness (log ratio) is -3.46
